Cited source for all entries: patent US20220340650A1

- Experimental Protocol: Phase 1b trial NCT04179474, plasma ubrogepant pharmacokinetics, erenumab arm (Part 1)
- Format: in vivo, human
- Details: human, plasma, oral; erenumab arm; ubrogepant 100 mg alone, day 1; read-out: AUC0-∞, geometric LSM
Readout: AUC(0-inf) (ng·h/mL)
Write the value in ng·h/mL as a bare number.

Reported AUC(0-inf) ( C[C@@H]1[C@H](c2ccccc2)C[C@H](NC(=O)c2cnc3c(c2)C[C@@]2(C3)C(=O)Nc3ncccc32)C(=O)N1CC(F)(F)F ) = 1810

---

- Experimental Protocol: Phase 1b trial NCT04179474, plasma ubrogepant pharmacokinetics, erenumab arm (Part 1)
- Type: in vivo, human
- Details: human, plasma, other: extravascular administration; erenumab arm; ubrogepant 100 mg alone, day 1; n = 20; read-out: t1/2, mean (converted)
Readout: half-life (h)
Write the value in h as a bare number.

Reported half-life ( C[C@@H]1[C@H](c2ccccc2)C[C@H](NC(=O)c2cnc3c(c2)C[C@@]2(C3)C(=O)Nc3ncccc32)C(=O)N1CC(F)(F)F [Ubrogepant, ubrogepant] ) = 5.3

---

- Experimental Protocol: Phase 1b trial NCT04179474, plasma ubrogepant pharmacokinetics, erenumab arm (Part 1)
- Type: in vivo, human
- Details: human, plasma; erenumab arm; ubrogepant 100 mg day 12, after SC erenumab 140 mg on day 8; n = 19; read-out: tmax, median
Readout: Tmax (h)
Write the value in h as a bare number.

Reported Tmax ( C[C@@H]1[C@H](c2ccccc2)C[C@H](NC(=O)c2cnc3c(c2)C[C@@]2(C3)C(=O)Nc3ncccc32)C(=O)N1CC(F)(F)F ) = 1.5

---

- Experimental Protocol: Phase 1b trial NCT04179474, plasma ubrogepant pharmacokinetics, galcanezumab arm (Part 2)
- Type: in vivo, human
- Details: human, plasma, oral; galcanezumab arm; ubrogepant 100 mg alone, day 1; n = 20; read-out: VZ/F, mean
Readout: Vd/F

Reported Vd/F ( C[C@@H]1[C@H](c2ccccc2)C[C@H](NC(=O)c2cnc3c(c2)C[C@@]2(C3)C(=O)Nc3ncccc32)C(=O)N1CC(F)(F)F ) = 569 L

---

- Experimental Protocol: Phase 1b trial NCT04179474, plasma ubrogepant pharmacokinetics, galcanezumab arm (Part 2)
- Type: in vivo, human
- Details: human, plasma, oral, 100 mg, galcanezumab arm; ubrogepant 100 mg alone, day 1; n = 20; read-out: AUC0-t, mean
- Protocol: A two-part, multi-center, open-label, phase 1b trial (NCT04179474) in 40 adults (aged 18-50 years) diagnosed with migraine was conducted to evaluate the impact of erenumab or galcanezumab on the pharmacokinetics (PK), safety, and tolerability of ubrogepant in patients with migraine. This open-label, multicenter trial enrolled adults diagnosed for greater than or equal to one year with migraine not on preventive treatment. […]
Readout: AUC(0-t) (ng·h/mL)
Write the value in ng·h/mL as a bare number.

Reported AUC(0-t) ( C[C@@H]1[C@H](c2ccccc2)C[C@H](NC(=O)c2cnc3c(c2)C[C@@]2(C3)C(=O)Nc3ncccc32)C(=O)N1CC(F)(F)F ) = 1700

---

- Experimental Protocol: Phase 1b trial NCT04179474, plasma ubrogepant pharmacokinetics, erenumab arm (Part 1)
- Format: in vivo, human
- Details: human, plasma, oral; erenumab arm; ubrogepant 100 mg alone, day 1; read-out: AUC0-t, geometric LSM
Readout: AUC(0-t) (ng·h/mL)
Write the value in ng·h/mL as a bare number.

Reported AUC(0-t) ( C[C@@H]1[C@H](c2ccccc2)C[C@H](NC(=O)c2cnc3c(c2)C[C@@]2(C3)C(=O)Nc3ncccc32)C(=O)N1CC(F)(F)F ) = 1780

---

- Experimental Protocol: Phase 1b trial NCT04179474, plasma ubrogepant pharmacokinetics, erenumab arm (Part 1)
- Assay type: in vivo, human
- Details: human, plasma, oral; erenumab arm; ubrogepant 100 mg alone, day 1; read-out: Cmax, geometric LSM
Readout: Cmax (ng/mL)
Write the value in ng/mL as a bare number.

Reported Cmax ( C[C@@H]1[C@H](c2ccccc2)C[C@H](NC(=O)c2cnc3c(c2)C[C@@]2(C3)C(=O)Nc3ncccc32)C(=O)N1CC(F)(F)F ) = 431

---

- Experimental Protocol: Phase 1b trial NCT04179474, plasma ubrogepant pharmacokinetics, erenumab arm (Part 1)
- Format: in vivo, human
- Details: human, plasma; erenumab arm; ubrogepant 100 mg day 12, after SC erenumab 140 mg on day 8; n = 19; read-out: t1/2, mean (converted)
Readout: half-life (h)
Write the value in h as a bare number.

Reported half-life ( C[C@@H]1[C@H](c2ccccc2)C[C@H](NC(=O)c2cnc3c(c2)C[C@@]2(C3)C(=O)Nc3ncccc32)C(=O)N1CC(F)(F)F [Ubrogepant, ubrogepant] ) = 5.3

---

- Experimental Protocol: Phase 1b trial NCT04179474, plasma ubrogepant pharmacokinetics, galcanezumab arm (Part 2)
- Assay type: in vivo, human
- Details: human, plasma, oral; galcanezumab arm; ubrogepant 100 mg day 12, after SC galcanezumab 240 mg on day 8; n = 20
Readout: Tmax (h)
Write the value in h as a bare number.

Reported Tmax ( C[C@@H]1[C@H](c2ccccc2)C[C@H](NC(=O)c2cnc3c(c2)C[C@@]2(C3)C(=O)Nc3ncccc32)C(=O)N1CC(F)(F)F ) = 1.5
